Biological target: T1, soluble human GPNMB (recombinant extracellular domain) (human, UniProt Q14956 23-498)
T1 construct: also called huGPNMB; recombinant human GPNMB extracellular domain; not shown: C-terminal polyhistidine or Avi-His tag
T1 sequence: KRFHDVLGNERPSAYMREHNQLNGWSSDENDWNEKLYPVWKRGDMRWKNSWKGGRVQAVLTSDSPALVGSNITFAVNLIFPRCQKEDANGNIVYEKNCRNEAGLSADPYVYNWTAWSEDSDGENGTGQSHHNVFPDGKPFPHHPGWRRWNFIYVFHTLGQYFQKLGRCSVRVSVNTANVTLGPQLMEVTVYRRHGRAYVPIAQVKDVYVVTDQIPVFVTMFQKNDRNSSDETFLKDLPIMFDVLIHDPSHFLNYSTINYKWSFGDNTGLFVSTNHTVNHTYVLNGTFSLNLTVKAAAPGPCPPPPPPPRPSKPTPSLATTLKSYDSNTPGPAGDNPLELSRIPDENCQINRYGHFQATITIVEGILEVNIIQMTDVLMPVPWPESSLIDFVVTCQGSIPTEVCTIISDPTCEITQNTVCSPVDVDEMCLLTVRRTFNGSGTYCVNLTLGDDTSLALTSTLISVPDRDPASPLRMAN
Assay: SPR Carterra, Ab immobilized
Below, each entry is listed alongside its reported koff.
I only need the number, in s⁻¹, no unit after it.

Take a look at these entries with their results.
>>> val("anti-GPNMB antibody GPN-38 (antibody, human IgG1, V domains shown, chimeric) VH: QVQLQQPGAELVRPGTSVRLSCKASGYTFTSYWIHWVKQRPGRGLEWIGVIDPSDSYTNYNQQFNVKATLTVDTSSSAAYMQLSSLTSEDSAVYYCARGLITAVNWYFDVWGTGTTVTVSS VL: DIQMTQSPASLSTSVGEIVTITCRASENIYSYLTWYQQKQGKSPQLLVYNAKTLAEGVPSRFSGSGSGTQFSLKINSLQPEDFGTYYCQHHYGTPLTFGSGTKLEIK")
0.00053
>>> val("anti-GPNMB antibody GPN-34 (antibody, human IgG1, V domains shown, chimeric) VH: EVKLVESGGGLVQPGRSLKLSCAASGFNFYDYWMGWVRQAPGKGLEWIGEINKDSRTINYTPFLKDRFTISRDNAQNTLYLQMSKLGSEDTAIYYCAREGRVPFDYWGQGVMVTVSS VL: DIQMTQSPSSMSVSLGDTVTIPCRASQDVGSYVNWFQQKPGKSPRHMIYRATNLADGVPSRFSGSRSGADYSLTISSLESEDVADYHCQQYAEYPLTFGSGTKLEIK")
"6.3e-05"

Field: next binder
Name the recorded koff for anti-GPNMB antibody GPN-26 (antibody, human IgG1, V domains shown, chimeric) VH: EVQLQQSGPELVKPGASVKISCKASGYSFTGYYMNWVRQSPEKSLEWIGEINPSTGITTYNQKFKAKATLTVDKSSNTAFMQLKSLTSEDSAVYYCARPASWFDYWGQGTLVTVSA VL: DIQMTQSPSSLSASLGERVSLTCRASQEISGHLSWLQQKPDGTIKRLIYAASTLDSGVPKRFSGSRSGSDYSLTISSLESEDFADYYCLQYASYPYTFGGGTKLEIK .
0.00027

Data provenance is patent US20250270343A1.
